Read-out: Collagen IV, COL4A1 (gene 1282)
Assay: BSK_MyoF_CollagenIV: BioMAP Diversity Plus: MyoF Assay for Collagen IV Biomarker Activity (AID 2284247)
Conditions: primary human lung fibroblasts
Active and inactive are the calls of the source. Rule for the calls: active = hit-call score of the fitted dose curve at least 0.9, where 1 is the maximum; inactive = score below 0.9.
Bench note: report the call from yes for active, no for inactive

Request: Given `O=C1c2ccc(O)c(O)c2C(=O)c2c(O)ccc(O)c21` , state the outcome it received in this test.
Response: no

Request: Given CCCCC(CC)C(=O)OCCOCCOCCOCCOC(=O)C(CC)CCCC (centres undefined) , state the outcome it received in this test.
Response: no

Request: Given `CN(Cc1cnc2nc(N)nc(N)c2n1)c1ccc(C(=O)N[C@@H](CCC(=O)O)C(=O)O)cc1` , state the outcome it received in this test.
Response: no

Request: Given `O=C(O)CCC(F)(F)C(F)(F)C(F)(F)C(F)(F)C(F)(F)F` , state the outcome it received in this test.
Response: no

Request: Given `CC(C)(C)c1ccc(O)c(O)c1` , state the outcome it received in this test.
Response: yes

Request: Given `O=P(O)(O)CCC(F)(F)C(F)(F)C(F)(F)C(F)(F)C(F)(F)C(F)(F)C(F)(F)C(F)(F)F` , state the outcome it received in this test.
Response: no

Request: Given `COCN(COC)c1nc(N(COC)COC)nc(N(COC)COC)n1` , state the outcome it received in this test.
Response: no

Request: Given `OCCN1CN(CCO)CN(CCO)C1` , state the outcome it received in this test.
Response: no

Request: Given `CCCCCCCCCCCCCCCCCC[N+](C)(C)Cc1ccccc1` , state the outcome it received in this test.
Response: no
